target: T1, human PD-1 on cells (293T cells transfected with human PD-1) (human, UniProt Q15116 25-288); assay: FACS blockage on hPD-1-293T cells, competitor biotin PD-L2
T1 construct: whole, on cells; Also used as the target for the functional rows, where PD-1 stands on human T cells
T1 sequence (Q15116 25-288): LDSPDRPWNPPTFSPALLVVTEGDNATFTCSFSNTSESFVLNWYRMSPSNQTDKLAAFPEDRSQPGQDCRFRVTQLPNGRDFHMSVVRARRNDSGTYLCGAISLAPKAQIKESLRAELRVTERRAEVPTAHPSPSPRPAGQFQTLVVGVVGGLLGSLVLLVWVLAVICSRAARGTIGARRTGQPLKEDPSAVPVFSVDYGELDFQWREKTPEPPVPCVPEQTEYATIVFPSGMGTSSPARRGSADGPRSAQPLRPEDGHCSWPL

binder	quantityUnit	IC50
7A4 murine anti-PD-1 antibody (antibody, V domains shown, Purified hybridoma antibody; also called 7A4-mIgG1) VH: QIHLVQSGPELKKPGETVKISCKASGYTFTNFGMNWVKQAPGKGLKWMGWISGYTREPTYAADFKGRFAISLETSASTAYLQINDLKNEDMATYFCARDVFDYWGQGTTLTVSS VL: DIVLTQSPASLAVSLGQRATISCRASESVDNYGYSFMNWFQQKPGQPPKLLIYRASNLESGIPARFSGSGSRTNFTLTINPVEADDVATYFCQQSNADPTFGGGTNLEIKR	µg/mL	0.00445
14A6 murine anti-PD-1 antibody (antibody, V domains shown, Purified hybridoma antibody; also called 14A6-mIgG1) VH: DVQLQESGPGLVKPSQSLSLTCTVTGYSITSDYAWNWIRQFPGNQLEWMAYISYSGYTSYNPSLKSRISITRDTSRNQFFLQLNSVTTEDTATYYCARSLDYDYGTMDYWGQGTSVTVSS VL: QIVLSQSPAILSASPGEKVTMTCRANSSVSSMHWYQQKPGSSPEPWIYAISNLAFGVPARFSGSGSGTSYSLTISRVEAEDAATYFCQQWNSRPPTFGGGTKLEIKR	µg/mL	0.092
5A8 murine anti-PD-1 antibody (antibody, V domains shown, Purified hybridoma antibody; also called 5A8-mIgG1) VH: QVQLQQSGDELVRPGTSVKMSCKAAGYTFTNNWIGWVKQRPGHGLEWIGDFYPGGGYTNYNEKFKGKATLTADTSSSTAYMQLSSLTSEDSAIYYCARGYGTNYWYFDVWGAGTTVTVSS VL: NIVMTQTPKILFISAGDRVTITCKASQSVSNDVAWYQQKPGQSPKLLIYYAFTRYIGVPDRFTGSGYGTDFTFTISTVQAEDLAVYFCQQDYSSPYTFGGGTKLEIKR	µg/mL	0.0188
13F1 murine anti-PD-1 antibody (antibody, V domains shown, Purified hybridoma antibody; also called 13F1-mIgG1) VH: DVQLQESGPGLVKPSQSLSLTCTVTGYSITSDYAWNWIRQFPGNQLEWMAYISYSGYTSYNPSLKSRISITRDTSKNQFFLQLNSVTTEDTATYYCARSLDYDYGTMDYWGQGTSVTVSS VL: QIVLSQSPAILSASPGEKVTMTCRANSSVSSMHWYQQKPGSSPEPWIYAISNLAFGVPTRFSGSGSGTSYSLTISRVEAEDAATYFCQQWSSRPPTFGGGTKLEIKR	µg/mL	0.0529
10D1 murine anti-PD-1 antibody (antibody, V domains shown, Purified hybridoma antibody; also called 10D1-mIgG1) VH: EVKLVESGGGLVKPGGSLKLSCAASGFTFSSYGMSWLRQTPEKRLEWVATMSGGGRDIYYPDSMKGRFTISRDNAKNNLYLQMSSLRSEDTALYYCARQYYDDWFAYWGQGTLVTVSA VL: DIVLTQTPATLSVTPGDSVSLSCRASQSISNNLHWYQQKSHESPRLLIKYASQSISGIPSRFSGSGSGTDFTLNINSVETEDFGMYFCQQSNSWPLTFGAGTKLELKR	µg/mL	0.15
4C10 murine anti-PD-1 antibody (antibody, V domains shown, Purified hybridoma antibody; also called 4C10-mIgG1) VH: QVQLKQSGPGLVQPSQNLSVTCTVSGFSLTTYGVHWVRQSPGKGLEWLGVIWSGGSTDYNAAFISRLTISKDNARSQVFFKMNSLQVNDTAMYYCAREKSVYGNYVGAMDYWGQGTSVTVSS VL: SIVMTQTPKFLLVSAGDRVTITCKASQSVSDDVAWYQQKPGQSPKLLIYYAFNRYTGVPDRFTGSGYGTDFTFTISTVQSEDLAVYFCQQDYRSPWTFGGGTKLEIKR	µg/mL	0.251
15H5 murine anti-PD-1 antibody (antibody, V domains shown, Purified hybridoma antibody; also called 15H5-mIgG1) VH: EVKLVESGGGLVKPGGSLKLSCAASGFAFRSYDMSWVRQTPEKILEWVATISGGGSYTYYQDSVKGRFTISRDNARNTLYLQMSSLRSEDTALYYCASPYGPYFDYWGQGTTLTVSS VL: DIQMNQSPSSLSASLGDTITITCHASQSINVWLSWYQQKPGNIPKLLIYRASNLHTGVPSRFSGSGSGTGFTLTISSLQPDDIATYYCQQGQSYPWTFGGGTKLEIKR	µg/mL	0.063
